test system: α1; assay: α1 cross-reactivity (% inhibition / Ki), Table 1; assay type: binding
What α1 % inhibition was measured for each of the following?
# number only, unit % dropped from output

Record lookup: for α1, what α1 % inhibition belongs to `CC(=O)Nc1cccc(N2CCN(CC3CCN(S(=O)(=O)c4ccc(F)cc4)CC3)CC2)c1` ?
49

Quick check: α1 % inhibition on α1, item `O=S(=O)(c1ccc(F)cc1)N1CCC(CN2CCN(c3ccccn3)CC2)CC1` ?
42

Requested read-out α1 % inhibition, target or system α1, entry COc1ccccc1N1CCN(CCCCNS(=O)(=O)CC2CCCCC2)CC1 [C-Cyclohexyl-N-{4-[4-(2-methoxy-phenyl)-piperazin-1-yl]-buty]
98

Report α1 % inhibition for `Cc1ccc(S(=O)(=O)NCCCCN2CCN(c3cccc(NS(=O)(=O)C(C)C)c3)CC2)cc1` tested on α1.
15

Recorded α1 % inhibition for `Cc1ccc(S(=O)(=O)NCCCCN2CCN(c3cccc(NS(C)(=O)=O)c3)CC2)cc1` with α1, please?
51

Lab note: need α1 % inhibition with α1 for entry `O=C(Nc1cccc(N2CCN(CCCCNS(=O)(=O)CC3CCCCC3)CC2)c1)C1CC1` , please look it up.
22

Kindly state the measured α1 % inhibition obtained for `Cc1ccc(S(=O)(=O)NCCCCN2CCN(c3cccc(NC(=O)C4CC4)c3)CC2)cc1` with α1.
40

// lookup α1 % inhibition | system=α1 | key= `Cc1ccc(S(=O)(=O)NCCCCN2CCN(c3cccc(NC(=O)C(C)C)c3)CC2)cc1`
47

These measurements were taken from patent US7153858B2.
